Target System: recombinant human GM-CSF (human, UniProt P04141 18-144)
Sequence (P04141 18-144 limits assumed): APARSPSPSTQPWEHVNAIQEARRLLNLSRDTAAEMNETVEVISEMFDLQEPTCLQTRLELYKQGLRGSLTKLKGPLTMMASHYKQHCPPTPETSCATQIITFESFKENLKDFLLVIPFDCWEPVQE
Assay Overview: cell-based or functional assay
Recorded measurements of IC50 (M), inhibition of GM-CSF induced TF-1 cell proliferation (FIG. 5B), one per entry
Observation Type: IC50 (M), inhibition of GM-CSF induced TF-1 cell proliferation (FIG. 5B)

Binder	Reported Value
antibody 1D2 (antibody, V domains shown, also called 1D2-WT; WT) VH: QVQLVQSGAEVKKPGASVKVSCEASGYTFTDKYLHWVRQAPGQGLEWMAWINPKSGGTFYAQNFKGRVTVTRDTSINTAYLELTSLRLDDTSTYYCARGRDYYDQGAADLWGQGTMVTVSS VL: DIQLTQSPSSLSASVGDRVTITCRASQGINSVLAWYQQKPGKAPKLLLYAASKLESGVPSRFSGSGSGTDYTLTISSLQPEDFGTYYCQQYYSPVRTFGQGTKVEIKR	2.28e-10 M
1D2 SDR mutant HY103N (antibody, IgG1, V domains shown, also called X6 N) VH: QVQLVQSGAEVKKPGASVKVSCEASGYTFTDKYLHWVRQAPGQGLEWMAWINPKSGGTFYAQNFKGRVTVTRDTSINTAYLELTSLRLDDTSTYYCARGRDYNDQGAADLWGQGTMVTVSS VL: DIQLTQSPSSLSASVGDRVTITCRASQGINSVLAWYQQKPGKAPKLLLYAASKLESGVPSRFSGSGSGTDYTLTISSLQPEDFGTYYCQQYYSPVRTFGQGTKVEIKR	3.6e-09 M
1D2 SDR mutant Y103R/V32R (antibody, IgG1, V domains shown) VH: QVQLVQSGAEVKKPGASVKVSCEASGYTFTDKYLHWVRQAPGQGLEWMAWINPKSGGTFYAQNFKGRVTVTRDTSINTAYLELTSLRLDDTSTYYCARGRDYRDQGAADLWGQGTMVTVSS VL: DIQLTQSPSSLSASVGDRVTITCRASQGINSRLAWYQQKPGKAPKLLLYAASKLESGVPSRFSGSGSGTDYTLTISSLQPEDFGTYYCQQYYSPVRTFGQGTKVEIKR	~8.19e-09 M
1D2 SDR mutant HQ105N (antibody, IgG1, V domains shown, also called X7 N) VH: QVQLVQSGAEVKKPGASVKVSCEASGYTFTDKYLHWVRQAPGQGLEWMAWINPKSGGTFYAQNFKGRVTVTRDTSINTAYLELTSLRLDDTSTYYCARGRDYYDNGAADLWGQGTMVTVSS VL: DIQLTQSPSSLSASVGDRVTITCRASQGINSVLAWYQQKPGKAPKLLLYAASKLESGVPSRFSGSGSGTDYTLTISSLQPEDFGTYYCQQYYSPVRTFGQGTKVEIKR	7.67e-09 M
1D2 SDR mutant HY103R (antibody, IgG1, V domains shown, also called X6 R) VH: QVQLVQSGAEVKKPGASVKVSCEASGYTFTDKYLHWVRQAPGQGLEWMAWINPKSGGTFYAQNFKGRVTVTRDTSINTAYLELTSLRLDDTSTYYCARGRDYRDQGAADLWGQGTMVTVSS VL: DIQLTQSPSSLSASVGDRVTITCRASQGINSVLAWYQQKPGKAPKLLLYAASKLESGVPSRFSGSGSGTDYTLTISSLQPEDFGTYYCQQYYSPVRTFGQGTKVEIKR	3.47e-09 M
